Source listed as the RNAGym collection of RNA variant scans (doi:10.1073/pnas.2313332121).

B1: TPR 5TU (parent)
chain: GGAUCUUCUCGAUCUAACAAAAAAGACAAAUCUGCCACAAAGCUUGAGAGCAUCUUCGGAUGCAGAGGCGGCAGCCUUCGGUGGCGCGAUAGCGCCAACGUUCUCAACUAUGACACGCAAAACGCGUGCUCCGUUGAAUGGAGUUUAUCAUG

Variants of: B1
assay_details: polymerase ribozyme fitness, log enrichment relative to wild type (log ratio); higher = more active; in vitro selection for triplet polymerase activity
This sample holds only a part of the variants without activity.
Readings of polymerase ribozyme fitness (log ratio) for the listed variants
# answer = number (no unit)

For orientation, consider the following solved cases.
{"variant_label": "A98G U104G C118U", "polymerase ribozyme fitness (log ratio)": -0.702}
{"variant_label": "A89U G92C G94U G141A", "polymerase ribozyme fitness (log ratio)": -3.94}
{"variant_label": "G11A A52G U53A C54A G84U G128U C132U", "polymerase ribozyme fitness (log ratio)": -4.13}

Moving on to the next variant.
Inquiry: Could you share which polymerase ribozyme fitness (log ratio) value was measured for G59C G133U ?
Reply text: -3.47
